Test system: SN12C
procedure_text: NCI tumour cell line growth inhibition, 48 h
Active and inactive are the calls of the source. Rule as the data show it: active = GI50 up to about 1.1 µM and inactive = higher.
# GI50 annotations
assay_readout: GI50

>>> result("CNC(=O)ON(C(C)=O)C(=O)NC [CARACEMIDE]")
"58.9 µM (inactive)"
>>> result("CC1C2Cc3ccc(O)cc3C1(C)CCN2C (stereo not given)")
"> 100 µM (inactive)"
>>> result("C=C(CC(=O)Nc1ccc(C(=O)OC)o1)C(=O)OC")
"24.9 µM (inactive)"
>>> result("COc1cccc(N(CN2C(=O)CCC2OC)C(C)=O)c1 (stereo not given)")
"> 100 µM (inactive)"
>>> result("CC[C@@H]1/C=C/C=C/C[C@H](C)[C@@H](O)[C@](C)(O)C(=O)[C@H](C)[C@@H](O)[C@H](C)C(=O)[C@H](C)[C@@H](O)[C@H](C)/C=C/C(=O)O[C@H]2[C@@H](C)[C@@H](CC1)O[C@@]1(CC[C@@H](C)[C@@H](CC(C)O)O1)[C@@H]2C (stereo not given in full)")
"1.72 µM (inactive)"
>>> result("COC(=O)/N=[N+](\\[O-])C(c1ccc(OC)cc1)C1CCCCC1 (stereo not given)")
"1.8 µM (inactive)"
>>> result("CC1CC(N)=C(C#N)C1(C#N)C#N (stereo not given)")
"> 100 µM (inactive)"
>>> result("O=C(OC1CCC2OOC1O2)c1ccc([N+](=O)[O-])cc1 (stereo not given)")
"> 100 µM (inactive)"
>>> result("CN1Cc2c(ccc3c2OCO3)[C@@H]2[C@H](O)Cc3cc4c(cc3[C@@H]21)OCO4")
"5.06 µM (inactive)"
>>> result("CCCCCCCCCc1nn2c(Cc3ccccc3)nnc2s1")
"18.2 µM (inactive)"
